Tested on: 3T3-L1
Test: In vitro by measurements of 2-Deoxyglucose (2DG) uptake in vehicle treated 3T3-L1 adipocytes at 3 uM dose.
Assay type: functional
Please provide measured Basal uptake for the entries that follow.
State just the number; it will be interpreted in %.

Return reported Basal uptake; argument: CC(C)c1ccc(OC(C)(C(=O)O)C2CCc3cc(Cl)ccc32)cc1 (stereo in doubt; 101)
71

Return reported Basal uptake; argument: CCCCc1ccc(CC(C)(Oc2ccc(C(C)C)cc2)C(=O)[O-])cc1.[Na+] (configuration not stated)
82

Return reported Basal uptake; argument: CCc1cccc(CC(C)(Oc2ccc(C(C)C)cc2)C(=O)[O-])c1.[Na+] (configuration not stated)
102

Return reported Basal uptake; argument: CC(C)c1ccc(OC(C)(Cc2ccc(Cl)cc2)C(=O)O)cc1 (stereo in doubt; 26)
98

Return reported Basal uptake; argument: Cc1ccc(S(=O)(=O)C(CCCCCc2ccc(Cl)cc2)C(=O)O)cc1 (configuration not stated)
114

Return reported Basal uptake; argument: CC(Cc1ccc(Cl)cc1)(Oc1ccc(C2CCSc3ccccc32)cc1)C(=O)[O-].[Na+] (configuration not stated)
130

Return reported Basal uptake; argument: CC(C)c1ccc(OC(C)(Cc2ccccc2-c2ccccc2)C(=O)[O-])cc1.[Na+] (configuration not stated)
148

Return reported Basal uptake; argument: CC(C)c1ccc(OC(C)(Cc2ccc(-c3ccccc3)cc2)C(=O)[O-])cc1.[Na+] (configuration not stated)
122

Return reported Basal uptake; argument: COc1ccc(S(=O)(=O)NC(=O)C(C)(Oc2ccc(C(C)C)cc2)C(C)c2ccc(Cl)cc2)cc1 (configuration not stated)
130

Return reported Basal uptake; argument: CC(C)c1ccc(OC(C)(CO)Cc2ccc(Cl)cc2)cc1 (configuration not stated)
118

Return reported Basal uptake; argument: CC(C)c1ccc(OC(C)(Cc2cccc(-c3ccccc3)c2)C(=O)[O-])cc1.[Na+] (configuration not stated)
87

Return reported Basal uptake; argument: CC(C)c1ccc(OC(C)(C(=O)O)C(C)c2ccc(Cl)cc2)cc1 (stereo in doubt; 84)
102

Return reported Basal uptake; argument: CC(Cc1ccc(Cl)cc1)(Oc1ccc(Br)cc1)C(=O)O (configuration not stated)
120

Return reported Basal uptake; argument: Cc1cccc(CC(C)(Oc2ccc(C(C)C)cc2)C(=O)[O-])c1.[Na+] (configuration not stated)
93

Return reported Basal uptake; argument: CC(C)c1ccc(OC(C)(Cc2ccc(Cl)cc2)C(=O)NS(=O)(=O)C(F)(F)F)cc1 (configuration not stated)
130

Return reported Basal uptake; argument: CCCc1cccc(CC(C)(Oc2ccc(C(C)C)cc2)C(=O)[O-])c1.[Na+] (configuration not stated)
136

Return reported Basal uptake; argument: CC(C)c1ccc(OC(C)(C(=O)O)C2CCc3cc(Cl)ccc32)cc1 (stereo in doubt; 100)
85
